Every entry's value here was drawn from patent US20240294572A1.

# Test system: S. aureus USA400
# Type: cell-based
Non-standard residues stand in square brackets, D forms with d. Residues, ends and D or L forms follow the SMILES beside them. *: point of attachment. Decanoyl = CCCCCCCCCC(=O)*

{"columns": ["Compound", "Minimal inhibitory concentration, USA400 [µM]"],
 "data": [
  ["CCCCCCCCCC(=O)N[C@H](CCCCN)C(=O)N[C@H](CCCNC(=N)N)C(=O)N[C@@H](C(=O)N[C@H](Cc1c[nH]c2ccccc12)C(=O)N[C@H](CCC(N)=O)C(=O)N[C@H](CCCNC(=N)N)C(=O)N[C@@H](C(=O)N[C@H](CCCCN)C(N)=O)[C@H](C)CC)[C@H](C)CC [Peptide C10-KR8d] (Decanoyl-[dK][dR][dI][dW][dQ][dR][dI][dK]-NH2)", 1.6]
]}

----------
// reported HC50 for each item listed
# System: human red blood cells (hRBCs)
# Type: cell-based
# Measurement context: red cells of human, 1 h
Residues, ends and D or L forms follow the SMILES beside them. *: point of attachment. Myristoyl = CCCCCCCCCCCCCC(=O)*; Hexanoyl = CCCCCC(=O)*

{"columns": ["Molecule", "HC50"],
 "data": [
  ["CCCCCCCCCCCCCC(=O)N[C@@H](CCCCN)C(=O)N[C@@H](CCCNC(=N)N)C(=O)N[C@H](C(=O)N[C@@H](Cc1c[nH]c2ccccc12)C(N)=O)[C@@H](C)CC [Peptide C14-KR4] (Myristoyl-KRIW-NH2)", "<25 µM"],
  ["CCCCCCCCCCCCCC(=O)N[C@@H](CCCCN)C(=O)N[C@@H](CCCNC(=N)N)C(=O)N[C@H](C(=O)N[C@@H](Cc1c[nH]c2ccccc12)C(=O)N[C@@H](CCC(N)=O)C(=O)N[C@@H](CCCNC(=N)N)C(=O)N[C@H](C(=O)N[C@@H](CCCCN)C(=O)N[C@@H](CC(=O)O)C(=O)N[C@@H](Cc1ccccc1)C(N)=O)[C@@H](C)CC)[C@@H](C)CC [Peptide C14-KR10] (Myristoyl-KRIWQRIKDF-NH2)", "<25 µM"],
  ["CCCCCC(=O)N[C@@H](CCCCN)C(=O)N[C@@H](CCCNC(=N)N)C(=O)N[C@H](C(=O)N[C@@H](Cc1c[nH]c2ccccc12)C(=O)N[C@@H](CCC(N)=O)C(=O)N[C@@H](CCCNC(=N)N)C(=O)N[C@H](C(=O)N[C@@H](CCCCN)C(=O)N[C@@H](CC(=O)O)C(=O)N[C@@H](Cc1ccccc1)C(N)=O)[C@@H](C)CC)[C@@H](C)CC [Peptide C6-KR10] (Hexanoyl-KRIWQRIKDF-NH2)", ">200 µM"]
]}
